Here, compounds appear alongside IC50 reported for Fibroblast growth factor receptor 4 (Homo sapiens, UniProt P22455) in the literature.
measured property: IC50 (nM)

>>> print(df.to_string())
                                smiles_data                                 tested_on  measured_property  qualifier_symbol  reading
0  C=CC(=O)Nc1ccc(F)c(-c2cc3c(cn2)cc(-c2c(Cl)c(OC)cc(OC)c2Cl)c(=O)n3C(C)C)c1  Fibroblast growth factor receptor 4 (Homo sapiens, UniProt P22455)               IC50                 <       10
1  C=CC(=O)Nc1ccc(F)c(-c2cc3c(cn2)cc(-c2c(F)c(OC)cc(OC)c2F)c(=O)n3C(C)C)c1  Fibroblast growth factor receptor 4 (Homo sapiens, UniProt P22455)               IC50                 <       10
2  CCC(=O)NC12CC(C1)N(C(=O)Nc1cc(NCCOC)c(C#N)cn1)c1nc(C=O)ccc12  Fibroblast growth factor receptor 4 (Homo sapiens, UniProt P22455)               IC50                 =      2.5
3  C=CC(=O)Nc1cccc(F)c1Nc1ncc2cc(-c3c(Cl)c(OC)cc(OC)c3Cl)c3nccn3c2n1  Fibroblast growth factor receptor 4 (Homo sapiens, UniProt P22455)               IC50                 <       50
4  COCCNc1cc(NC(=O)N2c3nc(C=O)ccc3C3(NC(=O)c4ccccn4)CC2C3)ncc1C#N  Fibroblast growth factor receptor 4 (Homo sapiens, UniProt P22455)               IC50                 =      1.6
5  CCN1CCC(n2ccc(-c3cnc4[nH]cc(Cc5c(F)c(OC)nc(OC)c5F)c4c3)n2)CC1  Fibroblast growth factor receptor 4 (Homo sapiens, UniProt P22455)               IC50                 =     10.6
